All figures here come from FireProtDB (doi:10.1016/s0022-2836(99)80018-7).

B1: Ribonuclease, P00648 (parent)
chain: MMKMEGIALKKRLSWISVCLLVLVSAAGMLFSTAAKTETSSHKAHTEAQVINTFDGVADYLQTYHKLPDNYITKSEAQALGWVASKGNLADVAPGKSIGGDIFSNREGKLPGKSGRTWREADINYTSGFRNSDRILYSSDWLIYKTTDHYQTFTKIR

Variants of: B1
Run conditions: Bacillus amyloliquefaciens; pH 6.3; 25 °C; Urea; Fluorescence; MES 50 mM; reversible: yes; structure 1BNI; whole UniProt chain shown
Quantity name: ddG of mutation (higher = less stable)

mutation_code="D55A D59A" meas_value="3.72 kJ/mol"
mutation_code=R157A meas_value="1.92 kJ/mol"
mutation_code="D55A R157A" meas_value="1.97 kJ/mol"
mutation_code=D59A meas_value="1.42 kJ/mol"
mutation_code="D59A R157A" meas_value="-1.88 kJ/mol"
mutation_code=D55A meas_value="4.14 kJ/mol"
mutation_code="D55A D59A R157A" meas_value="-0.46 kJ/mol"
